# Tested on: Molt 4 human acute lymphoblastic leukemia cells
# experimentalProtocol: Cytotoxicity test, MTT colorimetric method, Molt 4
# Format: cell-based

| molecule | readingUnit | readoutRelation | IC50 (μg/ml) Molt 4 |
| --- | --- | --- | --- |
| C=C(CC[C@@H](C)[C@H]1CC[C@H]2C3=C(C(=O)C[C@]12C)[C@@]1(C)CCC(=O)[C@@H](C)[C@@H]1CC3=O)C(C)C(=O)O (stereo partly drawn) | µg/mL | = | 53.23 |
| C=C(CC[C@@H](C)[C@H]1CC[C@H]2C3=C(C(=O)C[C@]12C)[C@@]1(C)CCC(=O)[C@@H](C)C1C[C@@H]3O)[C@H](C)C(=O)O (stereo partly drawn) | µg/mL | = | 77.04 |
| C=C(CC[C@@H](C)[C@H]1CC[C@H]2C3=C(C(=O)[C@H](O)[C@]12C)[C@@]1(C)CC[C@@H](O)[C@@H](C)C1CC3=O)[C@@H](C)C(=O)O (stereo partly drawn) | µg/mL | > | 80 |
| C=C(CC[C@@H](C)[C@H]1CC[C@H]2C3=C(C(=O)[C@H](O)[C@]12C)[C@@]1(C)CC[C@@H](O)[C@@H](C)[C@@H]1CC3=O)C(C)C(=O)O (stereo partly drawn) | µg/mL | > | 80 |
| C=C(CC[C@@H](C)[C@H]1CC[C@H]2C3=C(C(=O)C[C@]12C)[C@@]1(C)CCC(=O)[C@@H](C)C1CC3=O)[C@@H](C)C(=O)O (stereo partly drawn) | µg/mL | = | 16.44 |
| C=C(CC[C@@H](C)[C@H]1CC[C@H]2C3=C(C(=O)[C@H](O)[C@]12C)[C@@]1(C)CC[C@@H](O)[C@@H](C)C1CC3=O)[C@H](C)C(=O)O (stereo partly drawn) | µg/mL | > | 80 |

----------
# Test system: Molt 4 human acute lymphoblastic leukemia cells
# experimentalProtocol: Cytotoxicity test, MTT colorimetric method, Molt 4
# Format: cell-based
// reported IC50 (μg/ml) Molt 4 for each item listed
propertyMeasured: IC50 (μg/ml) Molt 4 (µg/mL)

| compound | propertyMeasured | readoutRelation | measured |
| --- | --- | --- | --- |
| C=C(CC[C@@H](C)[C@H]1CC[C@H]2C3=C(C(=O)C[C@]12C)[C@@]1(C)CCC(=O)[C@@H](C)C1C[C@@H]3O)[C@@H](C)C(=O)O (stereo partly drawn) [Compound E4] | IC50 (μg/ml) Molt 4 | = | 54.28 |
| C=C(CC[C@@H](C)[C@H]1CC[C@H]2C3=C(C(=O)C[C@]12C)[C@@]1(C)CC[C@@H](O)[C@](C)(O)[C@@H]1C[C@@H]3O)[C@@H](C)C(=O)O [Compound E2] | IC50 (μg/ml) Molt 4 | > | 80 |
| C=C(CC[C@@H](C)[C@H]1CC[C@H]2C3=C(C(=O)C[C@]12C)[C@@]1(C)CCC(=O)[C@@H](C)C1CC3=O)[C@H](C)C(=O)O (stereo partly drawn) [Compound E9] | IC50 (μg/ml) Molt 4 | = | 42.16 |

Reference source: patent US20170226150A1
